Target: T1, Antigen CD66c (CEACAM6; Sino Biological, Inc.) (UniProt P40199 35-320)
T1 construct: Bought antigen, coated on the ELISA plate; construct not described; also called CECACAM6 (CD66c) antigen; CD66c antigen
T1 sequence (looked up): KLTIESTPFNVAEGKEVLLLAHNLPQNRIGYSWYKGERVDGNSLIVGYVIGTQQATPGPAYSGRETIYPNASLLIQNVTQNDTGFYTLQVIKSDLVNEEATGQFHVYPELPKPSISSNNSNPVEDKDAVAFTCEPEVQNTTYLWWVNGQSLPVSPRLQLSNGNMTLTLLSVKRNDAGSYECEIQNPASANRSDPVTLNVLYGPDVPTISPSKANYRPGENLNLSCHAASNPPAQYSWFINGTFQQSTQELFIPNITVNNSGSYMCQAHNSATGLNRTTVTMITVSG
Assay: ELISA, CEACAM6 coated 100 ng/well, antibody at 0.51 ng/ml
Method: Antigen CD66c (CEACAM6; Sino Biological, Inc.) and CEACAM1 antigen (Sino Biological, Inc.) were coated on a 96-well plate at a rate of 100 ng per well and then blocked. The primary antibody was diluted 3-fold from 10 ug/ml and bound at 37° C. for 1 hour. […] The washing was carried out at three times between each step, and the TMB reaction was performed, stopped with 1N H₂SO₄ solution at the same amount of TMB solution (100 ul) and then OD value was measured at 450 nm. […]
MEASURED_PARAMETER: OD 450 nm (OD 450 nm)
Report only the number, with the unit OD 450 nm understood.

Look over these answered cases.
Problem: So what does the record say about OD 450 nm for recombinant humanized anti-CD66c antibody Protein ID 2938 (Vk5 + VH7) (antibody, human IgG1, V domains shown, also called hu 2938) VH: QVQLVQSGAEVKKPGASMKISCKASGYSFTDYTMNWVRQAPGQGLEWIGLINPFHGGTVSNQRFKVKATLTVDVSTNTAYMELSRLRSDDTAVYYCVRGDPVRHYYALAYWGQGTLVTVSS VL: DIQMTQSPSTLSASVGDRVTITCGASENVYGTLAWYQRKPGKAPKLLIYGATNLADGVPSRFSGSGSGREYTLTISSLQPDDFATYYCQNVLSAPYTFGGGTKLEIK ?
Solution: 0.36

Problem: State the recorded OD 450 nm for this entry: recombinant humanized anti-CD66c antibody Protein ID 3019 (Vk7 + VH10) (antibody, human IgG1, V domains shown, also called hu 3019; #51) VH: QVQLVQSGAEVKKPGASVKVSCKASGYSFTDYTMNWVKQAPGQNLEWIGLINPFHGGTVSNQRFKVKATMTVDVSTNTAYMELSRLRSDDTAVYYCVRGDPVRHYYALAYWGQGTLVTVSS VL: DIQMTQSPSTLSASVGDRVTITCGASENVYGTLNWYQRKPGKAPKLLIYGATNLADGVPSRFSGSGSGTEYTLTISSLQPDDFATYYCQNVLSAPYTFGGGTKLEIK
Solution: 0.8

Note: attention shifts to another entry.
Problem: Dear colleague, I am looking for the recorded OD 450 nm of the following binder: recombinant humanized anti-CD66c antibody Protein ID 3043 (Vk8 + VH6) (antibody, V domains shown, also called hu 3043; #71) VH: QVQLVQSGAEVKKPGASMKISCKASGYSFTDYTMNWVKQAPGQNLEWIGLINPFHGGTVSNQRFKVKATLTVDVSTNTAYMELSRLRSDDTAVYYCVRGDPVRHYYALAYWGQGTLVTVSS VL: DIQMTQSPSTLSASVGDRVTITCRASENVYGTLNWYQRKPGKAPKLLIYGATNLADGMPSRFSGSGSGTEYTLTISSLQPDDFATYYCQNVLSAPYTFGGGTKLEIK
Solution: 0.49

Values compiled from patent US20220119518A1.
